# IC50 listing for each entry below
Molecular target: Prostaglandin G/H synthase 1 (Homo sapiens, UniProt P23219)
Sequence (P23219 whole entry): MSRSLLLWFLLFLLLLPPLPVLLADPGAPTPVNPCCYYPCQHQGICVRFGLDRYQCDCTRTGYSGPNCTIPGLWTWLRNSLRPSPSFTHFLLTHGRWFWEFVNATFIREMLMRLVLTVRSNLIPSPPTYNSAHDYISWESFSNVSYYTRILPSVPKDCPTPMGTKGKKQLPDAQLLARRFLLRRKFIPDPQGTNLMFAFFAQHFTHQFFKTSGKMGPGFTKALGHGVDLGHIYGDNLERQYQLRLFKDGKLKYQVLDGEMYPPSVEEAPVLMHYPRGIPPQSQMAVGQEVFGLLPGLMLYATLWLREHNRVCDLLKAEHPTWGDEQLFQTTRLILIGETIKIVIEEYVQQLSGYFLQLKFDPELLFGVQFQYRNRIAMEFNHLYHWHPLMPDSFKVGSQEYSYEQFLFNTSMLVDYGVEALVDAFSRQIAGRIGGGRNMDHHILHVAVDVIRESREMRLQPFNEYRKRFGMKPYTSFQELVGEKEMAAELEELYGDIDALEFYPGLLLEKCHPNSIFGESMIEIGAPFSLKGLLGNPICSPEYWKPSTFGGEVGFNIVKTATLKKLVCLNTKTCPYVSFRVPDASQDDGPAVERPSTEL
Dear colleague, please send the value followed by its unit.

Worked examples follow.
INSERT INTO results (smiles_notation, experimental_endpoint, test_value) VALUES
  ('NS(=O)(=O)c1ccc(-n2nc(C(=O)OCCCN3CCOCC3)cc2-c2ccc(C(F)(F)F)cc2)cc1', 'IC50', '28.5 µM'),
  ('NS(=O)(=O)c1ccc(-n2nc(C(=O)NCCCN3CCOCC3)cc2-c2ccc(C(F)(F)F)cc2)cc1', 'IC50', '32.1 µM');

Lab note: next compound to report on.
Report its IC50 with Prostaglandin G/H synthase 1 (Homo sapiens, UniProt P23219) as the test system: NS(=O)(=O)c1ccc(-n2nc(C(=O)N3CCSCC3)cc2-c2ccc(C(F)(F)F)cc2)cc1
30.8 µM

* * *

Quick reference for IC50 among some compounds
Assay: Inhibition of 5-LOX assessed as calcium ionophore A23187-stimulated LTB4 production preincubated for 30 mins followed by calcium ionophore A23187 addition and measured after 30 mins by ELISA
Could you give the number and then its unit, please?

INSERT INTO results (smiles_notation, experimental_endpoint, test_value) VALUES
  ('CCOc1ccc(-c2cc(C(=O)N3CCSCC3)nn2-c2ccc(S(N)(=O)=O)cc2)cc1', 'IC50', '970 nM'),
  ('NS(=O)(=O)c1ccc(-n2nc(C(=O)N3CCOCC3)cc2-c2ccc(Cl)cc2)cc1', 'IC50', '1790 nM');

Here's the next entry for you.
Indicate the recorded IC50 value for this compound: CCOc1ccc(-c2cc(C(=O)OCCCN3CCOCC3)nn2-c2ccc(S(N)(=O)=O)cc2)cc1
720 nM

* * *

Molecular target: Prostaglandin G/H synthase 2 (Homo sapiens, UniProt P35354)
Sequence (P35354 whole entry): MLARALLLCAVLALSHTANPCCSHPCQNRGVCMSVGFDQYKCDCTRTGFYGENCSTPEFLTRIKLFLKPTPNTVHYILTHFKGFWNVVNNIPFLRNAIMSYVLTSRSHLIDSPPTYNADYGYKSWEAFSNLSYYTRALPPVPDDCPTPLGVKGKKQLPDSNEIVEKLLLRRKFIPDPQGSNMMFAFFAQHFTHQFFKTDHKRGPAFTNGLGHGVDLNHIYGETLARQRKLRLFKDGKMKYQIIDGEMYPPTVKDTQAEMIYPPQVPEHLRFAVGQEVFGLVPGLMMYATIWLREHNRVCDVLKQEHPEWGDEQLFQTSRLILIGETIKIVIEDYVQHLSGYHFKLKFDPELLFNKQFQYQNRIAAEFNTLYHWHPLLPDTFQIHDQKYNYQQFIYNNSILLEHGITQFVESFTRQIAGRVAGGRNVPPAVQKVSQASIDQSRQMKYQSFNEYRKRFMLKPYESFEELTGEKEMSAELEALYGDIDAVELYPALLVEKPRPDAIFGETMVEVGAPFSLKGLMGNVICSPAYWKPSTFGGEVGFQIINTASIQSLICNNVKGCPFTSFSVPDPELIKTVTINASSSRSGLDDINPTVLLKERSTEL
experimental.endpoint: pIC50
Scale: pIC50 equals -log10([C]), with [C] in mol/L.

The cases that follow already have their pIC50 on record.
INSERT INTO results (smiles_notation, target_or_system, test_value) VALUES
  ('CCOc1ccc(-c2cc(C(=O)OCCCN3CCOCC3)nn2-c2ccc(S(N)(=O)=O)cc2)cc1', 'Prostaglandin G/H synthase 2 (Homo sapiens, UniProt P35354)', 5.12),
  ('NS(=O)(=O)c1ccc(-n2nc(C(=O)OCCN3CCOCC3)cc2-c2ccc(F)cc2)cc1', 'Prostaglandin G/H synthase 2 (Homo sapiens, UniProt P35354)', 6.68),
  ('NS(=O)(=O)c1ccc(-n2nc(C(=O)N3CCOCC3)cc2-c2cccc(Cl)c2)cc1', 'Prostaglandin G/H synthase 2 (Homo sapiens, UniProt P35354)', 6.62),
  ('NS(=O)(=O)c1ccc(-n2nc(C(=O)N3CCSCC3)cc2-c2ccccc2)cc1', 'Prostaglandin G/H synthase 2 (Homo sapiens, UniProt P35354)', 6.17),
  ('COc1ccc(-c2cc(C(=O)N3CCSCC3)nn2-c2ccc(S(N)(=O)=O)cc2)cc1', 'Prostaglandin G/H synthase 2 (Homo sapiens, UniProt P35354)', 5.92),
  ('NS(=O)(=O)c1ccc(-n2nc(C(=O)N3CCSCC3)cc2-c2ccc(Cl)cc2)cc1', 'Prostaglandin G/H synthase 2 (Homo sapiens, UniProt P35354)', 6.64),
  ('NS(=O)(=O)c1ccc(-n2nc(C(=O)OCCCN3CCOCC3)cc2-c2ccc(C(F)(F)F)cc2)cc1', 'Prostaglandin G/H synthase 2 (Homo sapiens, UniProt P35354)', 6.68),
  ('NS(=O)(=O)c1ccc(-n2nc(C(=O)N3CCSCC3)cc2-c2ccc(C(F)(F)F)cc2)cc1', 'Prostaglandin G/H synthase 2 (Homo sapiens, UniProt P35354)', 6.72);

For the next question, use this molecule.
Enter recorded pIC50 with Prostaglandin G/H synthase 2 (Homo sapiens, UniProt P35354) for CCOc1ccc(-c2cc(C(=O)N3CCOCC3)nn2-c2ccc(S(N)(=O)=O)cc2)cc1 here.
5.52

* * *

pIC50 values for the compounds below.
Experiment: Inhibition of 5-LOX assessed as calcium ionophore A23187-stimulated LTB4 production preincubated for 30 mins followed by calcium ionophore A23187 addition and measured after 30 mins by ELISA
Bear in mind: pIC50 is minus log10 of a mol/L concentration; give just that figure.

Previously resolved entries follow.
INSERT INTO results (smiles_notation, test_value) VALUES
  ('NS(=O)(=O)c1ccc(-n2nc(C(=O)N3CCOCC3)cc2-c2cccc(F)c2)cc1', 5.70),
  ('NS(=O)(=O)c1ccc(-n2nc(C(=O)OCCN3CCOCC3)cc2-c2ccc(F)cc2)cc1', 6.08),
  ('NS(=O)(=O)c1ccc(-n2nc(C(=O)N3CCSCC3)cc2-c2cccc(Cl)c2)cc1', 6.06),
  ('NS(=O)(=O)c1ccc(-n2nc(C(=O)NCCN3CCOCC3)cc2-c2ccc(Cl)cc2)cc1', 6.05);

Specify measured pIC50 for NS(=O)(=O)c1ccc(-n2nc(C(=O)OCCN3CCOCC3)cc2-c2ccc(Cl)cc2)cc1 .
6.06

* * *

Test: Inhibition of 5-LOX assessed as calcium ionophore A23187-stimulated LTB4 production preincubated for 30 mins followed by calcium ionophore A23187 addition and measured after 30 mins by ELISA
Field 'label' (enum: 1 / -1). Set to 1 when IC50 is strictly under 900 nM; else -1.

INSERT INTO results (smiles_notation, discrete_label) VALUES
  ('NS(=O)(=O)c1ccc(-n2nc(C(=O)N3CCSCC3)cc2-c2ccc(Br)cc2)cc1', -1);

For this compound, is IC50 lower than 900 nM? NS(=O)(=O)c1ccc(-n2nc(C(=O)N3CCOCC3)cc2-c2cccc(Cl)c2)cc1
-1

# TODO verify IC50 < 900 nM strictly for this compound: NS(=O)(=O)c1ccc(-n2nc(C(=O)N3CCOCC3)cc2-c2ccccc2)cc1
-1

Please check: IC50 for CCOc1ccc(-c2cc(C(=O)NCCCN3CCOCC3)nn2-c2ccc(S(N)(=O)=O)cc2)cc1 , strictly under 900 nM or not?
1

* * *

Test: Inhibition of 5-LOX assessed as calcium ionophore A23187-stimulated LTB4 production preincubated for 30 mins followed by calcium ionophore A23187 addition and measured after 30 mins by ELISA
experimental.endpoint: pIC50
Remember the convention: pIC50 equals -log10 of concentration in molar.

Sample records with pIC50:
INSERT INTO measurements (smiles_notation, test_value) VALUES
  ('Cc1ccc(-c2cc(C(=O)N3CCOCC3)nn2-c2ccc(S(N)(=O)=O)cc2)cc1', 5.91),
  ('COc1cccc(-c2cc(C(=O)N3CCSCC3)nn2-c2ccc(S(N)(=O)=O)cc2)c1', 5.92),
  ('NS(=O)(=O)c1ccc(-n2nc(C(=O)N3CCOCC3)cc2-c2ccc(F)cc2)cc1', 6.05),
  ('COc1ccc(-c2cc(C(=O)OCCCN3CCOCC3)nn2-c2ccc(S(N)(=O)=O)cc2)cc1', 6.06);

Output pIC50 of NS(=O)(=O)c1ccc(-n2nc(C(=O)N3CCSCC3)cc2-c2cccc(F)c2)cc1
5.88

Assign pIC50 to the following record: CCOc1ccc(-c2cc(C(=O)NCCN3CCOCC3)nn2-c2ccc(S(N)(=O)=O)cc2)cc1
6.07

Tell me its pIC50 given NS(=O)(=O)c1ccc(-n2nc(C(=O)NCCN3CCOCC3)cc2-c2ccccc2)cc1 as the entry.
6.02

Given NS(=O)(=O)c1ccc(-n2nc(C(=O)OCCCN3CCOCC3)cc2-c2ccc(C(F)(F)F)cc2)cc1 , respond with its pIC50.
6.12

Look up and state reported pIC50 for COc1ccc(-c2cc(C(=O)N3CCSCC3)nn2-c2ccc(S(N)(=O)=O)cc2)cc1
6.00

Complete the entry with pIC50 for NS(=O)(=O)c1ccc(-n2nc(C(=O)OCCCN3CCOCC3)cc2-c2ccc(Cl)cc2)cc1
6.07

* * *

Entries below carry reported pIC50 on Prostaglandin G/H synthase 2 (Homo sapiens, UniProt P35354).
Quick note: pIC50 values are minus log10 of concentrations in mol/L.

INSERT INTO measurements (smiles_notation, target_or_system, test_value) VALUES
  ('NS(=O)(=O)c1ccc(-n2nc(C(=O)N3CCOCC3)cc2-c2ccc(F)cc2)cc1', 'Prostaglandin G/H synthase 2 (Homo sapiens, UniProt P35354)', 6.64),
  ('NS(=O)(=O)c1ccc(-n2nc(C(=O)OCCN3CCOCC3)cc2-c2ccc(Cl)cc2)cc1', 'Prostaglandin G/H synthase 2 (Homo sapiens, UniProt P35354)', 6.60),
  ('CCOc1ccc(-c2cc(C(=O)NCCN3CCOCC3)nn2-c2ccc(S(N)(=O)=O)cc2)cc1', 'Prostaglandin G/H synthase 2 (Homo sapiens, UniProt P35354)', 6.07);

Then this compound:
Note down pIC50 recorded for COc1ccc(-c2cc(C(=O)OCCCN3CCOCC3)nn2-c2ccc(S(N)(=O)=O)cc2)cc1
5.98
